Values were extracted from patent US12331052B2.

target: SERT (Homo sapiens, UniProt P31645); test: biochemical; assay type: binding; conditions: read-out: maximum inhibition
Sequence (P31645 whole entry, species assumed): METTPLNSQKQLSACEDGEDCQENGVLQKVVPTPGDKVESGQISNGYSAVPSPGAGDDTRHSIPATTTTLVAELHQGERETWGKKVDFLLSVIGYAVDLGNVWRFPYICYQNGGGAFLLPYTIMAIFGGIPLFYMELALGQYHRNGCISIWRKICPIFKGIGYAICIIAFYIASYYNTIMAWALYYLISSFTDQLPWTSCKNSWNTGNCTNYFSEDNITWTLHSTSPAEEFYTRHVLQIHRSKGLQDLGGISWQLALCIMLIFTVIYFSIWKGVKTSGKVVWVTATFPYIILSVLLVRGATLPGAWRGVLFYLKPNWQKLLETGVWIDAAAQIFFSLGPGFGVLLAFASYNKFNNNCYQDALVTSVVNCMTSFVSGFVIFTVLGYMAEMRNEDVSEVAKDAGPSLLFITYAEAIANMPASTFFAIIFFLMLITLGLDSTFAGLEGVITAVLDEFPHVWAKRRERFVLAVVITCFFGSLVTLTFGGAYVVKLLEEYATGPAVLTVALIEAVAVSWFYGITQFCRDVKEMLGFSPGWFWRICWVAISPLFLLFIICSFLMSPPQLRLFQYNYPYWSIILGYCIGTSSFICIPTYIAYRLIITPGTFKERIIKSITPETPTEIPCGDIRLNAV
Measured property: inhibition at 0.2 µM
# answer = value followed by unit

Prompt: // query inhibition at 0.2 µM value for entry `O=C1CN2c3c(cccc3[C@@H]3CN(CCCOc4ccccc4F)CC[C@@H]32)N1`
Response: 5%

Prompt: // query inhibition at 0.2 µM value for entry `O=C1CN2c3c(cccc3[C@@H]3CN(CCCOc4ccc(Br)cc4)CC[C@@H]32)N1`
Response: 44%

Prompt: // query inhibition at 0.2 µM value for entry `Cc1ccc(OCCCN2CC[C@H]3[C@@H](C2)c2cccc4c2N3CC(=O)N4)cc1`
Response: 10%

Prompt: // query inhibition at 0.2 µM value for entry `CC(C)N1C(=O)CN2c3c(cccc31)[C@@H]1CN(CCCOc3ccc(F)cc3)CC[C@@H]12`
Response: 11%

Prompt: // query inhibition at 0.2 µM value for entry `O=C1CN2c3c(cccc3[C@@H]3CN(CCCOc4ccc(I)cc4)CC[C@@H]32)N1`
Response: 48%

Prompt: // query inhibition at 0.2 µM value for entry `O=C1CN2c3c(cccc3[C@@H]3CN(CCCOc4cccc(F)c4)CC[C@@H]32)N1`
Response: 8%
